- Assay Procedure: NCI Yeast Anticancer Drug Screen. Data for the mlh1 rad18 strain (AID 175)
- Stated Conditions: S. cerevisiae mlh1 rad18 strain growth inhibition; at 50.0 µM (retest, dose inferred, filed as 5.0)
The panel holds about 79,000 compounds, 15% with a hit somewhere; the sample as a whole holds those more often. The source made the active and inactive calls. No stated cut-off is given here; in the data, active means growth inhibition above about 70%; inactive means the rest. Where a SMILES comes first, the peptide text is derived from it. [ ]: non-standard residue; d: D form. The star is where a group is joined. Phe(4-Cl) = N[CH](Cc1ccc(Cl)cc1)C(=O)O; 3Pal = N[CH](Cc1cccnc1)C(=O)O; Cbz = O=C(OCc1ccccc1)*
Classes used: t for active, f for inactive

{"columns": ["Compound", "Class Assignment"],
 "data": [
  ["COc1cc(/C=C/C(=N\\NC(=O)c2ccccc2)c2sc(Nc3ccc(Cl)c(Cl)c3)nc2C)ccc1O", "f"],
  ["CC(=O)NC(Cc1ccc(Cl)cc1)C(=O)NC(Cc1ccc(Cl)cc1)C(=O)NC(Cc1cccnc1)C(=O)NC(CO)C(=O)NC(Cc1ccc(O)cc1)C(=O)NC(CCCN=C(N)N)C(=O)NC(CC(C)C)C(=O)NC(CCCN=C(N)N)C(=O)N1CCCC1C(=O)NC(C)C(=O)O (stereo not given) (Ac-[Phe(4-Cl)][Phe(4-Cl)][3Pal]SYRLRPA-OH; configuration not given here)", "f"],
  ["CCOC(=O)C(N=Nc1ccc(Br)c(C)c1)C(C)=O (stereo not given)", "t"],
  ["O=C(NC(Cc1ccc(O)cc1)C(=O)NC(Cc1ccccc1)C(=O)O)OCc1ccccc1 (stereo not drawn) (Cbz-Tyr-Phe-OH; configuration not given here)", "f"],
  ["NC(=O)Nc1cc(=O)[nH]c(=S)[nH]1", "f"]
]}
